- Tested on: HT-29
- Assay Summary: Anticancer activity against human HT-29 cells assessed as cell growth at 10 uM after 48 hrs by sulforhodamine B assay relative to control
- Format: functional
- Test Context: HT-29, 48 h, read-out: Activity
Provide the recorded growth at 10 µM for the entries that follow.
Numbers only, in %.

Here's what some known entries look like.
- Compound: "C=C1CC[C@@H]2[C@](C)(COC(C)=O)[C@H](OC(C)=O)CC[C@@]2(C)[C@H]1CC(Nc1ccc(S(=O)(=O)Nc2nc(C)cc(C)n2)cc1)C1=CCOC1=O (stereo partly specified)"
  Reported Property: "growth at 10 µM"
  Result Value: 46.2
- Compound: "C=C1CC[C@@H]2[C@](C)(COC(C)=O)[C@H](OC(C)=O)CC[C@@]2(C)[C@H]1CC(Nc1ccc(S(=O)(=O)Nc2nccc(C)n2)cc1)C1=CCOC1=O (stereo partly specified)"
  Reported Property: "growth at 10 µM"
  Result Value: -28.2
- Compound: "C=C1CC[C@@H]2[C@](C)(COC(C)=O)[C@H](OC(C)=O)CC[C@@]2(C)[C@H]1CC(Nc1ccc(S(=O)(=O)Nc2ncccn2)cc1)C1=CCOC1=O (stereo partly specified)"
  Reported Property: "growth at 10 µM"
  Result Value: -48.6

# batch size: 3; output growth at 10 µM per entry
1. C=C1CC[C@@H]2[C@](C)(COC(C)=O)[C@H](OC(C)=O)CC[C@@]2(C)[C@H]1CC(Nc1ccc(S(=O)(=O)Nc2cc(C)on2)cc1)C1=CCOC1=O (stereo partly specified)
2. C=C1CC[C@@H]2[C@](C)(COC(C)=O)[C@H](OC(C)=O)CC[C@@]2(C)[C@H]1CC(Nc1ccc(S(=O)(=O)Nc2nccs2)cc1)C1=CCOC1=O (stereo partly specified)
3. C=C1CC[C@@H]2[C@](C)(COC(C)=O)[C@H](OC(C)=O)CC[C@@]2(C)[C@H]1CC(Nc1ccc(S(=O)(=O)Nc2ccc(Cl)nn2)cc1)C1=CCOC1=O (stereo partly specified)

-11
-42.7
-18.3

====

- Test system: MOLT-4
- Assay Summary: Growth inhibition of human MOLT4 cells incubated for 48 hrs by sulforhodamine B assay
- Format: functional
- Test Context: MOLT-4, 48 h
Reported Property: TGI (µM)
Answers are plain numbers, in µM.

Here's what some known entries look like.
- Molecule: "C=C1CC[C@@H]2[C@](C)(COC(C)=O)[C@H](OC(C)=O)CC[C@@]2(C)[C@H]1CC(Nc1ccc(S(=O)(=O)Nc2cc(C)on2)cc1)C1=CCOC1=O (stereo not given in full)"
  Assayed System: "MOLT-4"
  Reported Property: "TGI"
  Unit Name: "µM"
  Result Value: 6.39
- Molecule: "C=C1CC[C@@H]2[C@](C)(COC(C)=O)[C@H](OC(C)=O)CC[C@@]2(C)[C@H]1CC(Nc1ccc(S(=O)(=O)Nc2nccc(C)n2)cc1)C1=CCOC1=O (stereo not given in full)"
  Assayed System: "MOLT-4"
  Reported Property: "TGI"
  Unit Name: "µM"
  Result Value: 17.9

# batch size: 2; output TGI per entry
1. C=C1CC[C@@H]2[C@](C)(COC(C)=O)[C@H](OC(C)=O)CC[C@@]2(C)[C@H]1CC(Nc1ccc(S(=O)(=O)Nc2nccs2)cc1)C1=CCOC1=O (stereo not given in full)
2. C=C1CC[C@@H]2[C@](C)(COC(C)=O)[C@H](OC(C)=O)CC[C@@]2(C)[C@H]1CC(Nc1ccc(S(=O)(=O)Nc2ncccn2)cc1)C1=CCOC1=O (stereo not given in full)

[73.2, 8.37]

All figures here come from ChEMBL document CHEMBL4033712.
